tgt: Endonuclease 8-like 2 (Homo sapiens) (UniProt Q969S2)
Sequence (Q969S2 whole entry): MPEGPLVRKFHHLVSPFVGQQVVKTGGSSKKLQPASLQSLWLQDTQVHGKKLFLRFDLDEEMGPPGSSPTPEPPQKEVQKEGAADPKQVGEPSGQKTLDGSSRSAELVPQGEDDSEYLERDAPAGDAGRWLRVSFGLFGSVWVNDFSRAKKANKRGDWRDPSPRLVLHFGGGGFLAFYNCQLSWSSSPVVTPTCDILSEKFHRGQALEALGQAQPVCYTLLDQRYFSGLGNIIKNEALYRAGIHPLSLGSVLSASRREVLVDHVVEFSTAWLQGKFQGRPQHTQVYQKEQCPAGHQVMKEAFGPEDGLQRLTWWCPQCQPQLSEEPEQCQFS
particulars: Compound Concentration 10.0 uM, Hit No
Where a SMILES comes first, the peptide text is derived from it.
property_measured: inhibition
Record the result as number plus unit.

CC[C@H](C)[C@H](NC(=O)[C@H](Cc1ccc(O)cc1)NC(=O)[C@@H](NC(=O)[C@H](CCCNC(=N)N)NC(=O)[C@@H](N)CC(=O)O)C(C)C)C(=O)N[C@@H](Cc1cnc[nH]1)C(=O)N[C@H](C)C(=O)O (HELM PEPTIDE1{D.R.V.Y.I.H.[dA]}$$$$V2.0); -1.88%
N=C(N)NCCC[C@@H](NC(=O)C(c1ccccc1)c1ccccc1)C(=O)NCc1ccc(CNC(N)=O)cc1; -2.13%
C/C(=N\NC(=O)[C@@H]1C(=O)NC[C@H]1c1ccccc1)c1cccc(Br)c1; 6.5%

Now for the molecule whose inhibition we want.
Can you look up inhibition on Endonuclease 8-like 2 (Homo sapiens) (UniProt Q969S2) for FC(F)(F)c1cccc(-c2noc(-c3cc(-c4ccccc4)c(C(F)(F)F)s3)n2)c1 ?
-4.73%

###

inhibition: recorded values
tgt: Endonuclease 8-like 1 (Homo sapiens) (UniProt Q96FI4)
Sequence (Q96FI4 whole entry): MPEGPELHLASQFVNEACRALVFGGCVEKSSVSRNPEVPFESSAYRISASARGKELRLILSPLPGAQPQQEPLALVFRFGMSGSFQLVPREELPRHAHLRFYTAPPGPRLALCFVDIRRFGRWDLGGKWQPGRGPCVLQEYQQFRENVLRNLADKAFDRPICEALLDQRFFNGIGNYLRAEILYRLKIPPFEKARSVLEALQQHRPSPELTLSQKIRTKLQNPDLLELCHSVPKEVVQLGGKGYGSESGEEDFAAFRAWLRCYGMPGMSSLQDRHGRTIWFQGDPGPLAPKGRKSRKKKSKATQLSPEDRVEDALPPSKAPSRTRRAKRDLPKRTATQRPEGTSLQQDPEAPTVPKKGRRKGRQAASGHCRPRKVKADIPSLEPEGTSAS
particulars: Compound Concentration 10.0 uM, Hit No
Record the result as number plus unit.

Sample answers from the record:
COc1c(C(=O)/C=C/c2ccccc2)c(O)c(OC)c2occc12; -0.435%
COC(=O)N1CCN(C(=O)Cc2ccc(Cl)c(Cl)c2)C(CN2CCCC2)C1 (stereo not given); 4.16%
CC(C)(C)c1ccc(C(=O)Nc2cn3cc(-n4ccnc4)ccc3n2)cc1; -0.391%

May I ask what inhibition has been recorded for CCCNC(=O)c1nnc2c(-c3c(F)cccc3OC)cccc2c1N ?
10.5%

May I ask what inhibition has been recorded for Cc1nn(C)c2nc(NNC(=O)Nc3cc(Cl)nc(Cl)c3)cc(C(C)C)c12 ?
-1.83%

###

inhibition: recorded values
tgt: Endonuclease 8-like 1 (Homo sapiens)
particulars: Compound Concentration 1.0 uM, Hit No
Number only, in %; omit the unit.

Sample answers from the record:
CCN(CC)CCCCNc1ncc2cc(-c3cc(OC)cc(OC)c3)c(NC(=O)NC(C)(C)C)nc2n1; 6.87
Cc1c(NC(=O)c2cc(C(N)=O)nc3cc(F)ccc23)c(C(F)(F)F)nn1Cc1ccc(C(C)(C)C)cc1; -8.32

Now for the molecule whose inhibition we want.
Can you look up inhibition on Endonuclease 8-like 1 (Homo sapiens) for CNc1nc(Nc2cnn([C@H]3CCN(C4COC4)C[C@@H]3F)c2Cl)ncc1C(F)(F)F ?
-2.24

###

inhibition: recorded values
tgt: G/T mismatch-specific thymine DNA glycosylase (Homo sapiens) (UniProt Q13569)
Sequence (Q13569 whole entry): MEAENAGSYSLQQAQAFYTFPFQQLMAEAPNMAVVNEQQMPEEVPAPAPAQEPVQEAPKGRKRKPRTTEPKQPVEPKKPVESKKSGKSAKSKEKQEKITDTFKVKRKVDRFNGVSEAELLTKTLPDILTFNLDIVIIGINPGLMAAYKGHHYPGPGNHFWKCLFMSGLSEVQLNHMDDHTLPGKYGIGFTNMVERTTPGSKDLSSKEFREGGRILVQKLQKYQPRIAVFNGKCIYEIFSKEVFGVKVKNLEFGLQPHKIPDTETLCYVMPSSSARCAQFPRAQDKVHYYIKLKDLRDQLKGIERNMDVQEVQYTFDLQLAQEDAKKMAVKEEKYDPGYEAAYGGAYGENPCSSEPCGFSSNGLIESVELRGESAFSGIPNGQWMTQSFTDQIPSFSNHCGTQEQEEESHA
particulars: Compound Concentration 10.0 uM, Hit No
Number only, in %; omit the unit.

CC(C)Oc1ccc(-c2nn([C@@H](C)c3oc4ccc(F)cc4c(=O)c3-c3cccc(F)c3)c3ncnc(N)c23)cc1F; 80.6
COCCOCCn1nc2c(c1C)-c1c(Cl)ccc3c1c(C)c(C(=O)O)n3CCCOc1cc(cc3c(F)c(Cl)ccc13)CCc1cc(nn1C)CSC2; 59.9
CC(C)(O)c1cnc(N2C[C@@]3(CCC[C@](C)(Cn4cnc5ccc(C#N)cc54)C3)OC2=O)cn1; 6.22
O=C(c1cc2c(cc1F)OC(c1ccc(F)cc1)(c1ccc(Cl)cc1Cl)O2)N1CCOCC1 (stereo not drawn); 17.8
C[C@@H]1CN(c2nccc(Nc3ccc4c(c3)n(CCC(C)(C)O)c(=O)n4C)n2)C[C@H](C)C1(F)F; 98.6
CS(=O)(=O)NC[C@H]1CC[C@H](Nc2nc3c(s2)CCSc2ccccc2-3)CC1; 2.85

May I ask what inhibition has been recorded for O=C(NCC1(N2CCN(c3ccccc3)CC2)CCOCC1)c1cccnc1Sc1ccccc1 ?
-0.15

May I ask what inhibition has been recorded for CNc1nc(NCc2ccc(NS(C)(=O)=O)cc2Cl)cc(-c2ccccn2)n1 ?
18.1

###

tgt: Uracil-DNA glycosylase (Homo sapiens) (UniProt P13051)
Sequence (P13051 whole entry): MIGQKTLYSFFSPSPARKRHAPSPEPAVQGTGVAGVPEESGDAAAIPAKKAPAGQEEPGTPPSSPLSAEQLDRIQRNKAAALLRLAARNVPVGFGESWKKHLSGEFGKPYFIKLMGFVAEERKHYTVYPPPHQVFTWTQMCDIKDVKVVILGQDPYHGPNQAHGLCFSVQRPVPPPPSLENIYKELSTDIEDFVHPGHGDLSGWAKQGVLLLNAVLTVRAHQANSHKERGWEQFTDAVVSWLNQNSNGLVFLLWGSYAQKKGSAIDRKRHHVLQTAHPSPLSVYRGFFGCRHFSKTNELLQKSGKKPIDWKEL
particulars: Compound Concentration 10.0 uM, Hit No
property_measured: inhibition (%)
Number only, in %; omit the unit.

Sample answers from the record:
CN(Cc1cccc(F)c1CNc1cc(F)c(S(=O)(=O)Nc2cscn2)c(F)c1)C(C)(C)C; -9.64
CC(C)S(=O)(=O)c1ccc2nccc(Nc3ccc4scnc4c3)c2c1; 8
OC(CN1CCC(Cc2ccc(F)cc2)CC1)c1ccc(Cl)cc1 (centres undefined); -7.04

May I ask what inhibition has been recorded for CCOc1ccc(Cc2nc3cc(C(=O)N(CC)CC)ccc3n2CC2CCCCC2)cc1 ?
-9.77

May I ask what inhibition has been recorded for Cc1nccc(COC(=O)N2C[C@@H]3[C@@H](CNC(=O)c4ccc5[nH]nnc5c4)[C@@H]3C2)n1 ?
1.28

May I ask what inhibition has been recorded for N=C(N)NCCC[C@H](NC(=O)C12CC3CC(CC(C3)C1)C2)C(=O)N[C@@H](Cc1ccccc1)C(N)=O ?
-7.87

May I ask what inhibition has been recorded for C[C@@H](CN1CCC(Cc2ccccc2)CC1)[C@@H](O)c1ccc(O)cc1 ?
-6.48

May I ask what inhibition has been recorded for CC(C)C[C@H](NC(=O)N1CCCCCC1)C(=O)N[C@H](Cc1cn(C)c2ccccc12)C(=O)N[C@H](Cc1ccccn1)C(=O)O ?
-6.34

###

tgt: UniProtKB P13051
particulars: Compound Concentration 1.0 uM, Hit No
Answer condition not met if inhibition is under 3%, and condition met if it is 3% or more.

Example results:
Cc1ccc(C(=O)Nc2cccc(C(F)(F)F)c2)cc1Nc1nc(-c2cccnc2)nc2c1cnn2C; condition met
O[C@]1(C(F)(F)F)CCCC[C@H]1Nc1ccc(F)cc1; condition not met
CC1=C(C#N)C(c2ccc3c(c2)c(NC(=O)c2ccccc2C)nn3C)C(C#N)=C(C)N1; condition not met
CCOc1cc2ncc(C#N)c(Nc3ccc(OCc4cccc(F)c4)c(Cl)c3)c2cc1NC(=O)/C=C/CN(C)C; condition met
CC(=O)Nc1cccc(-n2c(=O)n(C3CC3)c(=O)c3c(Nc4ccc(I)cc4F)n(C)c(=O)c(C)c32)c1; condition met
O=C(Cc1ccccc1)Nc1nnc(N2CC[C@@H]3[C@H]2CN3c2cccnn2)s1; condition met
CCOC(=O)c1c(/C(C#N)=C\N)c2ccc(Cl)c(Cl)c2n1C; condition not met

// next entry
Determine whether this compound has inhibition no lower than 3%: CS(=O)(=O)c1cc(C2(NC(=O)c3cncc4c3cnn4-c3ccc(F)cc3)CC2)ccn1
condition not met

###

inhibition: recorded values
tgt: UniProt P13051
particulars: Compound Concentration 10.0 uM, Hit No
Record the result as number plus unit.

C[C@]1(C(=O)N(CCCC(=O)O)Cc2cccc(Cl)c2)CCN1C(=O)c1csc2ccccc12; -7.61%
CC1(C)CC(=O)c2c(SCCO)sc(-c3nccs3)c2C1; -4.5%
CCCOc1ccc2[nH]cc(C3=CCNCC3)c2n1; -5.52%
Cn1cc(-c2ccc3occ(-c4cccc(-c5ccncc5)c4)c3n2)cn1; -1.77%

Now for the molecule whose inhibition we want.
May I ask what inhibition has been recorded for Cc1ccc(S(=O)(=O)Nc2ccc(-n3nc(C(F)(F)F)cc3C(F)(F)F)cc2)cc1 ?
-1.93%

###

tgt: N-glycosylase/DNA lyase (Homo sapiens)
particulars: Compound Concentration 10.0 uM, Hit No
property_measured: inhibition (%)
Number only, in %; omit the unit.

Sample answers from the record:
CSc1cccnc1N1CCN(Cc2nc3ccccc3[nH]2)CC1; 6.57
N#Cc1cc2c(OCC(O)CN3CCN(C(c4ccccc4)c4ccccc4)CC3)cccc2[nH]1 (racemic); -4.64
COC(=O)c1cc2c(cn1)[nH]c1ccccc12; 0.163
Fc1ccc(-c2c3cccc(C(F)(F)F)c3nn2Cc2ccc(F)cc2Cl)cc1; 8
CC(C)COc1ccc(CNC(=O)N(Cc2ccc(F)cc2)C2CCN(C)CC2)cc1; -7.83
Clc1ccc2nsnc2c1NC1=NCCN1; -1.01
O=C(Cc1ccccc1)Nc1nc2ccc(Cl)cc2c2nc(-c3ccco3)nn12; -2.3
CCCCCCCCCCCCCCCCOC[C@H](COP(=O)([O-])OCC[N+](C)(C)C)OC(C)=O; 31.6

May I ask what inhibition has been recorded for CC(C)c1cc(Br)c(NC(=O)Nc2cccnc2)c(Br)c1 ?
-2.73

May I ask what inhibition has been recorded for CC(C)(C)c1ccc(S(=O)(=O)Nc2ccc(Cl)cc2C(=O)c2cc[n+]([O-])cc2)cc1 ?
1.79

May I ask what inhibition has been recorded for NS(=O)(=O)c1c(Cl)ccc(NC(=O)Nc2cccc(Cl)c2Cl)c1O ?
6.41

May I ask what inhibition has been recorded for COc1ccc(NC(=O)c2ccc(-c3ccc(-c4noc(C)n4)cc3C)cc2)cc1OCCN(C)C ?
-3.51

###

tgt: Endonuclease 8-like 1 (Homo sapiens) (UniProt Q96FI4)
particulars: Compound Concentration 10.0 uM, Hit No
property_measured: inhibition (%)
Number only, in %; omit the unit.

Sample answers from the record:
O=S(=O)(Nc1ccc(C(O)(C(F)(F)F)C(F)(F)F)cc1)c1cccs1; -9.23
CCCCC[C@H](O)/C=C/[C@H]1CCC(=O)[C@@H]1CCCCCCC(=O)O; 1.28
O=C1CC[C@@]2(O)[C@H]3Cc4ccc(O)c5c4[C@@]2(CCN3CC2CC2)[C@H]1O5; -9.92
CC(C)c1cc(-c2ccc(F)c3ccccc23)nc(N)n1; 5.58
CNC(=O)Nc1ccc(-c2nc(N3CC4CCC(C3)O4)c3cnn(C4CCC5(CC4)OCCO5)c3n2)cc1; 2.52

May I ask what inhibition has been recorded for CC(C)c1noc(N2CCC(COc3ccc(-c4ccc(S(C)(=O)=O)cc4)nc3)CC2)n1 ?
10.9

May I ask what inhibition has been recorded for CC(C)(C(=O)O)c1ccc(C(O)CCCN2CCC(C(O)(c3ccccc3)c3ccccc3)CC2)cc1 (stereo unspecified) ?
-7.32

May I ask what inhibition has been recorded for COc1cc(OC)c(NC(=O)Nc2cc(C)on2)cc1Cl ?
-2.66

May I ask what inhibition has been recorded for O=C1c2ccccc2C(Cc2ccncc2)(Cc2ccncc2)c2ccccc21 ?
6.83

May I ask what inhibition has been recorded for NC(=O)c1cc(-c2ccc(S(=O)(=O)[C@H]3CC[C@H](Nc4ccc(C(F)(F)F)cn4)CC3)cc2)ccn1 ?
11
